run-parameters: in DMAc, 278.15 K
measure-name: solubility (mole fraction)

IN: Identify measured solubility (mole fraction) associated with COc1c(C(C)(C)C)cc([N+](=O)[O-])c(C)c1[N+](=O)[O-]
OUT: 0.121

---

run-parameters: in DMAc, 303.15 K
measure-name: solubility (mole fraction)
Lab note: jot the number down without any unit.

IN: Identify measured solubility (mole fraction) associated with COc1c(C(C)(C)C)cc([N+](=O)[O-])c(C)c1[N+](=O)[O-]
OUT: 0.258

---

run-parameters: in acetonitrile, 283.15 K
measure-name: solubility (mole fraction)

IN: Identify measured solubility (mole fraction) associated with COc1c(C(C)(C)C)cc([N+](=O)[O-])c(C)c1[N+](=O)[O-]
OUT: 0.0456

---

run-parameters: in DMAc, 308.15 K
measure-name: solubility (mole fraction)

IN: Identify measured solubility (mole fraction) associated with COc1c(C(C)(C)C)cc([N+](=O)[O-])c(C)c1[N+](=O)[O-]
OUT: 0.3

---

run-parameters: in methanol, 303.15 K
measure-name: solubility (mole fraction)
Lab note: jot the number down without any unit.

IN: Identify measured solubility (mole fraction) associated with COc1c(C(C)(C)C)cc([N+](=O)[O-])c(C)c1[N+](=O)[O-]
OUT: 0.00897

---

run-parameters: in n-butanol, 278.15 K
measure-name: solubility (mole fraction)
Lab note: jot the number down without any unit.

IN: Identify measured solubility (mole fraction) associated with COc1c(C(C)(C)C)cc([N+](=O)[O-])c(C)c1[N+](=O)[O-]
OUT: 0.00491

---

run-parameters: in n-propanol, 293.15 K
measure-name: solubility (mole fraction)
Lab note: jot the number down without any unit.

IN: Identify measured solubility (mole fraction) associated with COc1c(C(C)(C)C)cc([N+](=O)[O-])c(C)c1[N+](=O)[O-]
OUT: 0.00789

---

run-parameters: in DMF, 278.15 K
measure-name: solubility (mole fraction)
Lab note: jot the number down without any unit.

IN: Identify measured solubility (mole fraction) associated with COc1c(C(C)(C)C)cc([N+](=O)[O-])c(C)c1[N+](=O)[O-]
OUT: 0.0875

---

run-parameters: in n-propanol, 303.15 K
measure-name: solubility (mole fraction)
Lab note: jot the number down without any unit.

IN: Identify measured solubility (mole fraction) associated with COc1c(C(C)(C)C)cc([N+](=O)[O-])c(C)c1[N+](=O)[O-]
OUT: 0.0137

---

run-parameters: in methanol, 318.15 K
measure-name: solubility (mole fraction)

IN: Identify measured solubility (mole fraction) associated with COc1c(C(C)(C)C)cc([N+](=O)[O-])c(C)c1[N+](=O)[O-]
OUT: 0.018

---

run-parameters: in DMAc, 298.15 K
measure-name: solubility (mole fraction)
Lab note: jot the number down without any unit.

IN: Identify measured solubility (mole fraction) associated with COc1c(C(C)(C)C)cc([N+](=O)[O-])c(C)c1[N+](=O)[O-]
OUT: 0.221

---

run-parameters: in n-butanol, 288.15 K
measure-name: solubility (mole fraction)
Lab note: jot the number down without any unit.

IN: Identify measured solubility (mole fraction) associated with COc1c(C(C)(C)C)cc([N+](=O)[O-])c(C)c1[N+](=O)[O-]
OUT: 0.0088

---

run-parameters: in ethanol, 278.15 K
measure-name: solubility (mole fraction)

IN: Identify measured solubility (mole fraction) associated with COc1c(C(C)(C)C)cc([N+](=O)[O-])c(C)c1[N+](=O)[O-]
OUT: 0.00359

Data origin, for the record: BigSolDB 2.1
